Readings of composite z-score for the listed compounds
- Tested on: XIP peptide (Xip251-270) binding
- testName: small-molecule binders of XIP peptide, primary screen, biochemical, small-molecule microarray, fluorescence 635/667 nm, 0.1 µg/mL protein (AID 1182)
- runConditions: fluorescent protein binding, 635 nm, higher = more signal, called active from +8 up or from −8 down
Number, no unit, nothing else.

Reference set (3 entries):
{"columns": ["compound", "composite z-score"],
 "data": [
  ["COCCCNC(=O)[C@@H]1c2ccccc2C(=O)N(C2CCCCC2)[C@H]1c1ccc(CO)cc1", -0.209],
  ["C=C(COC)/C(=C/C[C@H](OC(=O)c1ccncc1)c1cccc(OCCO)c1)c1cnc2ccccc2c1", 4.42],
  ["COC(=O)[C@@]1(Cc2ccc(F)cc2)[C@H]2c3cc(C(=O)N4CCCC4)n(CCO)c3C[C@H]2CN1C(=O)c1ccccc1", -0.33]
]}

Lab note: CCCCN1CC=CC23O[C@@H]4/C=C\CCC(C)OC(=O)C4[C@H]2C(=O)N(C(C)CO)[C@@H]3C1=O (some centres not stated) gave composite z-score of 1.02

Input "COCCOC(=O)N1C(=O)[C@@]2(c3cc(C#Cc4ccc(OC)cc4)ccc31)[C@H](C(=O)Nc1nc3ccccc3s1)[C@H]1C(=O)O[C@H](c3ccccc3)[C@H](c3ccccc3)N1[C@@H]2c1ccccc1OCCO" . Output composite z-score: 0.71

Value of measured composite z-score for the entry "CC(=O)NCCCC[C@@H]1NC(=O)[C@@H]2C[C@H](C(=O)NCCCCCC[N+](C)(C)C)[C@H](c3ccc(O)cc3)N2C1=O" : 0.0817

// recorded composite z-score for "CC(C)C[C@@H]1NC(=O)[C@H]2C[C@@H](C(=O)NCCCCCNC(=O)CS)[C@@H](c3ccc(O)cc3)N2C1=O" : 0.563

Reported composite z-score ( "C[N+](C)(C)CCCCCCNC(=O)[C@H]1C[C@H]2C(=O)NCC(=O)N2[C@H]1c1cccc(OCCO)c1" ) = 1.32

Notebook: O=C1NC(=O)C2C1C=CC(C(O)c1ccc(F)cc1)N2Nc1ccccn1 (configuration not stated) , composite z-score read as -0.184

----------
- testName: PSAC antagonists in infected red cells, primary screen, cell-based, P. falciparum Indochina, OD700, 18 h (AID 1157)
- runConditions: P. falciparum Indochina infected erythrocytes, osmotic lysis OD700, 18 h; higher = more signal, called active from +8 up or from −8 down
Short version: z-score at least 0.4 is TRUE, less is FALSE.

## Input Test whether the molecule "CC(C)CNC(=O)[C@@H]1c2ccccc2C(=O)N(Cc2ccccc2)[C@H]1c1ccc(CO)cc1" records z-score of 0.4 or higher.
## Output TRUE

## Input Tell me whether z-score is at least 0.4 here: "NCCCC[C@@H]1NC(=O)[C@H]2C[C@@H](C(=O)NCc3ccc(F)cc3)[C@@H](c3cccc(OCCO)c3)N2C1=O"
## Output FALSE

## Input Check this molecule for z-score at or above 0.4: "COCCOC(=O)N1C(=O)[C@@]2(c3ccccc31)[C@H](C(N)=O)[C@H]1C(=O)O[C@H](c3ccccc3)[C@H](c3ccccc3)N1[C@@H]2c1ccc(OCCO)cc1"
## Output TRUE

## Input Quick check, z-score >= 0.4? "CCOC(=O)C1=CC[C@@H](c2ccccc2Cl)N(S(=O)(=O)c2ccc(C)cc2)[C@H]1c1cccc(OC)c1"
## Output FALSE

## Input Please indicate if the recorded z-score for "COCC(=C=CC[C@@H](O)c1cccc(OCCO)c1)C[C@@H](O)COCc1ccccc1" meets or exceeds 0.4.
## Output FALSE
